Taken from the supplement of paper PMC9170038.

# Test system: MS2 coat protein
# Test name: apparent KD of MS2 coat protein; designed switch direction (-1 OFF switch, 1 ON switch): 1; higher = weaker reporter binding
# Settings: Eterna round: R95; input ligand: FMN 200 uM
Measured apparent KD of MS2 coat protein, listed per entry for reference.
Answer with a number only, understood to be in nM.

# count of solved cases: 5
Seq string	apparent KD of MS2 coat protein, nM
UCUUGGUUUUUGCUCGUUUUUUGUGUUGAACAUGAGGAUCACCCAUGUAUUGUACGGUCCGGUUUAAUAGUGGUCCA [JMF 43] (puzzle: Sensor for hsa-mir-208a)	95.4
AAUAAGUUCAGCUCGUCUUGCGCCGACUGACAUGAGGAUCACCCAUGUGGAUUCCAAGGAAUCCAUUGGCGUGUUUC [Ororer] (puzzle: Sensor for hsa-mir-208a)	34.8
GGCUAUCGCGUACGAUAGCUGAAGCAUGUACAUGAGGAUCACCCAUGUCAUGUACAAGCUUUUUGCUCGUCUUAUUG [JL-shm-2.32 JL mod] (puzzle: Sensor for hsa-mir-208a)	243
UAGUACAUGCUUUUUGUCCGUCUUAGAUAACAUGAGGAUCACCCAUGUAAGGUGAAAGUUAUAUAGUUUAGGAAUAU [JR_SHM208A_Sub057] (puzzle: Sensor for hsa-mir-208a)	136
UCUUGGUUUUUGCUCGUUUUUUGUGUUGAACAUGAGGAUCACCCAUGUAUUGUACGGUCCGGUUUGGUAGUGGUCCG [JMF 16] (puzzle: Sensor for hsa-mir-208a)	41

get_value(item= AUUUUAAAACAUGAGGAUCACCCAUGUUACAAGCUUUUUUUUUUUUUUUUUUUUUGGUGAUCCUCAGCUCGUCUUAU [lrlee 1] (puzzle: Sensor for hsa-mir-208a version 2) , readout=apparent KD of MS2 coat protein) returns 1.51

----------
# Tested on: MS2 coat protein
# Test name: apparent KD of MS2 coat protein; designed switch direction (-1 OFF switch, 1 ON switch): 1; higher = weaker reporter binding
# Settings: input ligand: none
Measured endpoint: apparent KD of MS2 coat protein (nM)
Reply numerically in nM, unit not repeated.

Below are worked cases with known answers.
Seq string	Quantitative result
UUCUCCUUUUUUUACAUGAGGAUCACCCAUGUUUUUCUUACGUAGGAUAUCGUUGAGUGUUUGUACGAGAAGGACGUAGUAAGU [JR_SSND3_Sub059] (Eterna round: R96, puzzle: Same State NG 3)	67.9
AAUUAAGAUCGAGGAUAUCACGUCGAAUAGACGUGAGAAGGCGAUCAUAACAUGAGGAUCACCCAUGUAUUACAUGAAUUAAUU [SSNG1/4-B1] (Eterna round: R96, puzzle: Same State NG 1)	27
CUGAGCAGUCAAGGAUAUCACGUCGAUUAGACGUGAGAAGGUGAUUAAUACAUGAGGAUCACCCAUGUAAUACAUGAAGCUCAG [SSNG1/11-A2] (Eterna round: R96, puzzle: Same State NG 1)	41.9
AGCUAUUAAUCAGGAUAUGGUGACAUGAGGAUCACCCAUGUAUAGAUGAUUAAAUGUGGUCUAAACUAGAAGGGAUUGCUAACA [SameState NG2 #55] (Eterna round: R96, puzzle: Same State NG 2)	219
GUGCAAAUCAUAGGAUAUGGGCGGGAAUGCCGUCCAGAAGGAUGAACAUGAGGAUCACCCAUGUCCAGCCGCAAAUACGCGGCC [Sodirien] (Eterna round: R96, puzzle: Same State NG 1)	192

Looking up UUACCGCGGGUAGGAUAUGGUCACACUUCUAAAACAUGAGGAUCACCCAUGUCCGACACAUAAAGCCAGAAGGACCCGCGGCUC [Esbea] (Eterna round: R96, puzzle: Same State NG 2) , I see its apparent KD of MS2 coat protein listed as 71.4

Record summary for GGUAGGUUACUACCAGACAUGAGGAUCACCCAUGUAAAUGGGAAGGAUAUGGUACCGUUUCGGUACCAGAAGGUCCUAAAUGAG [JL SSNG3 1.47] (Eterna round: R96, puzzle: Same State NG 3) : reported apparent KD of MS2 coat protein = 1750
